Provenance of the data: patent US20240317739A1

Property: IC50; scope: individual molecules
Target: RON (Homo sapiens, UniProt Q04912)
Sequence (Q04912 25-1400, species assumed): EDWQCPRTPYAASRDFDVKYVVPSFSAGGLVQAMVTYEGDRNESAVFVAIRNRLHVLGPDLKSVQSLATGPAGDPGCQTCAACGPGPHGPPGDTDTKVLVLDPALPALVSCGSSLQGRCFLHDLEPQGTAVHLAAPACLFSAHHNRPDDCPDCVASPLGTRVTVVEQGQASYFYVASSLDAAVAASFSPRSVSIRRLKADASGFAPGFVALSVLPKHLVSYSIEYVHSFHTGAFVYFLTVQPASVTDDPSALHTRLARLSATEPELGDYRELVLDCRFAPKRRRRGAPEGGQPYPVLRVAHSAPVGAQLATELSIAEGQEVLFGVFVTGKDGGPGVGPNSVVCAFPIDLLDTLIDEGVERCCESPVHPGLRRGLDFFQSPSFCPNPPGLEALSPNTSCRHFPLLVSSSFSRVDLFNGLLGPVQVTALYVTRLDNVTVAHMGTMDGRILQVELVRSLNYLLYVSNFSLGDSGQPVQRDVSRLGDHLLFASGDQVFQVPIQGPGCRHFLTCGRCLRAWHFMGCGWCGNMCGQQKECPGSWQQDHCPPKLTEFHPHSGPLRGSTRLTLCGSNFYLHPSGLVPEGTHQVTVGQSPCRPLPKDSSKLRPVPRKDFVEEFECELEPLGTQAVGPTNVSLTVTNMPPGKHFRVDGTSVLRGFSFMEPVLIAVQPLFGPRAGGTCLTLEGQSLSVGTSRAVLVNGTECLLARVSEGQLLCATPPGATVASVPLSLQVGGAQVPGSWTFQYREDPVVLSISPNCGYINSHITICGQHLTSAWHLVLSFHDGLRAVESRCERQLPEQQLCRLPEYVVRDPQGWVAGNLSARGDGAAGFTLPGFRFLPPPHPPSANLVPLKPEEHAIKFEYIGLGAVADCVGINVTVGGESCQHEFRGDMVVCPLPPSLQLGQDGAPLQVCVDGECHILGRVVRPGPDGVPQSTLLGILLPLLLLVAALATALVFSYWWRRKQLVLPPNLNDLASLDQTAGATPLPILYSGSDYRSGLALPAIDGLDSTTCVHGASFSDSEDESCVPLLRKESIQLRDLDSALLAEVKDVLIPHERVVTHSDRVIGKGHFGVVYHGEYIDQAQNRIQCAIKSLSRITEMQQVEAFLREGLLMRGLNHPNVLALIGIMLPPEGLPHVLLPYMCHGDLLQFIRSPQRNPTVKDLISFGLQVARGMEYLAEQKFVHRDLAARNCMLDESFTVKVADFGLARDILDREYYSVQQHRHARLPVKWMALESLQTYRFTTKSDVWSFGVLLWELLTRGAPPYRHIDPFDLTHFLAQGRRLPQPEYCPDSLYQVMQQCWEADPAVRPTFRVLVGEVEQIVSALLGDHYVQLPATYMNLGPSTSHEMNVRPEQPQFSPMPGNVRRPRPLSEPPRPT

Take a look at these entries with their results.
{"molecule": "CC(C)n1c(=O)[nH]c2nccc(Oc3ccc(NC(=O)c4cnn(-c5ccncn5)c4C(F)(F)F)cc3F)c21", "measured.target": "RON (Homo sapiens, UniProt Q04912)", "assay.result": "< 50 nM"}
{"molecule": "COc1ccnc(-n2ncc(C(=O)Nc3ccc(Oc4ccnc5[nH]c(=O)n(C(C)C)c45)c(F)c3)c2C(F)(F)F)c1", "measured.target": "RON (Homo sapiens, UniProt Q04912)", "assay.result": "< 50 nM"}
{"molecule": "COc1ccc(-n2ncc(C(=O)Nc3ccc(Oc4ccnc5[nH]c(=O)n(C(C)C)c45)c(F)c3)c2C(F)(F)F)nc1", "measured.target": "RON (Homo sapiens, UniProt Q04912)", "assay.result": "50 to 500 nM"}

Prompt: Fill in the blank: the reported IC50 of `CC(C)n1c(=O)[nH]c2nccc(Oc3ccc(NC(=O)c4cnn(-c5cc(Cl)ccn5)c4C(F)(F)F)cc3F)c21` is ____.
Response: < 50 nM

Prompt: Fill in the blank: the reported IC50 of `Cc1c(C(=O)Nc2ccc(Oc3ccnc4[nH]c(=O)n(C(C)C)c34)c(F)c2)cnn1-c1cncnc1` is ____.
Response: 50 to 500 nM

Prompt: Fill in the blank: the reported IC50 of `CN1CCC(n2c(=O)[nH]c3nccc(Oc4ccc(NC(=O)c5cnn(-c6ncccc6F)c5C(F)(F)F)cc4F)c32)CC1` is ____.
Response: < 50 nM
